These entries and their values trace back to patent US10584124B2.

Assay: Primary salt screen of the compound of Formula II: XRPD post-cycling and post-stability (40° C., 75% RH overnight)
Assay type: physicochemical
Conditions: compound of Formula II + the acid given as label; from Acetone/water (10%); 40° C. and 75% RH overnight
parameter_measured: XRPD post-stability

The examples below pair each entry with its known result.
compound	XRPD post-stability
O=S(=O)(O)CCS(=O)(=O)O [1,2-Ethane disulfonic acid]	No solid
CCS(=O)(=O)O [Ethane sulfonic acid]	No solid
O=S(=O)(O)O [Sulfuric acid]	No solid
O=C(O)/C=C\C(=O)O [Maleic acid]	Amorphous

Could you now consider this next compound?
Query CS(=O)(=O)O [Methane sulfonic acid] yields XRPD post-stability of Amorphous

====

Assay: Solubility of the free base of the compound of Formula I in solvents and mixed solvent systems
Type: physicochemical
Conditions: 50% THF in H2O, 25 °C, aqueous with cosolvent or surfactant or cyclodextrin, thermodynamic from solid; title: THF/H2O at room temperature; head: % THF in EtOH = 50; read-out: Solubility
parameter_measured: solubility (µg/mL)
Field format: number, assumed µg/mL, no unit text.

Query COc1ccc(CN2CCN(c3ccc(-c4cc(-c5cnn(C)c5)cn5ncc(C#N)c45)cn3)CC2)cn1 [freebase of the compound of Formula I] yields solubility of 2500

====

Assay: Solubility of the free base of the compound of Formula I in solvents and mixed solvent systems
Assay type: physicochemical
Conditions: iPAc, 25 °C, organic solvent or mixture, thermodynamic from solid; read-out: Solubility at 25° C.
parameter_measured: solubility (µg/mL)
Field format: number, assumed µg/mL, no unit text.

Query COc1ccc(CN2CCN(c3ccc(-c4cc(-c5cnn(C)c5)cn5ncc(C#N)c45)cn3)CC2)cn1 [freebase of the compound of Formula I] yields solubility of 250

====

Assay: Solubility of the free base of the compound of Formula I in solvents and mixed solvent systems
Type: physicochemical
Conditions: 25 °C, organic solvent or mixture, thermodynamic from solid; 60% DCM in EtOH, room temperature; read-out: Solubility
parameter_measured: solubility (mg/mL)
Field format: number, assumed mg/mL, no unit text.

Query COc1ccc(CN2CCN(c3ccc(-c4cc(-c5cnn(C)c5)cn5ncc(C#N)c45)cn3)CC2)cn1 [freebase of the compound of Formula I] yields solubility of 16.6

====

Assay: Solubility of the free base of the compound of Formula I in solvents and mixed solvent systems
Type: physicochemical
Conditions: 0.1M HCl, 25 °C, simulated gastric fluid, thermodynamic from solid; read-out: Solubility at 25° C.
parameter_measured: solubility (µg/mL)
Field format: number, assumed µg/mL, no unit text.

Query COc1ccc(CN2CCN(c3ccc(-c4cc(-c5cnn(C)c5)cn5ncc(C#N)c45)cn3)CC2)cn1 [freebase of the compound of Formula I] yields solubility of 1500

====

Assay: Solubility of the free base of the compound of Formula I in solvents and mixed solvent systems
Type: physicochemical
Conditions: 25 °C, aqueous with cosolvent or surfactant or cyclodextrin, thermodynamic from solid; 60% DMSO in H2O, room temperature; read-out: Solubility
parameter_measured: solubility
Write down the value, and be sure its unit follows.

Query COc1ccc(CN2CCN(c3ccc(-c4cc(-c5cnn(C)c5)cn5ncc(C#N)c45)cn3)CC2)cn1 [freebase of the compound of Formula I] yields solubility of 100 µg/mL

====

Assay: Solvent solubility screen of the compound of Formula II
Type: physicochemical
Details: DMSO, 40 °C, organic solvent or mixture, thermodynamic from solid; read-out: Approximate solubility
parameter_measured: solubility (mg/mL)
Field format: number, assumed mg/mL, no unit text.

Query COc1ccc(CN2C3CC2CN(c2ccc(-c4cc(OCC(C)(C)O)cn5ncc(C#N)c45)cn2)C3)cn1 [compound of Formula II] yields solubility of 41
